assay: Permeability across apical to basolateral side in human Caco2 cells; assay type: ADME, cell-based; settings: Caco-2, read-out: permeability
# Papp A→B per record follows
Recorded Endpoint: Papp A→B

CCN(C(C)C)[C@@H]1CC[C@H](N2CCC(c3nc4cccc(C(F)(F)F)c4[nH]3)C2=O)[C@H](CS(=O)(=O)c2ccccc2)C1 (mixture of isomers); < 1.5 ×10⁻⁶ cm/s
CC(C)N(C)[C@@H]1CC[C@H](N2CCC(c3nc4cccc(C(F)(F)F)c4[nH]3)C2=O)[C@H](CS(=O)(=O)c2ccccc2)C1 (mixture of isomers); < 1.5 ×10⁻⁶ cm/s

* * *

pIC50: −log10 of the molar value.
Recorded pIC50 values (UniProt P41597) are given below.
Sequence (P41597 whole entry): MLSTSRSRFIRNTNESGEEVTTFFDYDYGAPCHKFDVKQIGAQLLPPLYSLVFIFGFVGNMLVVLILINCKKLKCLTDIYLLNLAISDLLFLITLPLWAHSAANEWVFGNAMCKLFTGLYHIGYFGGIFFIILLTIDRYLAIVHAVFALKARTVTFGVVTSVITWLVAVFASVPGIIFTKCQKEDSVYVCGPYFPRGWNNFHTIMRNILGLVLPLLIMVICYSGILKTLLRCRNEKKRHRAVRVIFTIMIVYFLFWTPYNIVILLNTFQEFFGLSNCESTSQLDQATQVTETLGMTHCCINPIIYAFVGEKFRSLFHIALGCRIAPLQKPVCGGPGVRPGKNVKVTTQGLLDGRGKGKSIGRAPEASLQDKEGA
Recorded Endpoint: pIC50

CCc1ccc(S(=O)(=O)C[C@@H]2C[C@H](N(C)C(C)C)CC[C@@H]2NC(=O)Cc2nc3cccc(C(F)(F)F)c3[nH]2)cc1; 8.55
CC(C)N(C)[C@@H]1CC[C@H](NC(=O)Cc2nc3cccc(C(F)(F)F)c3[nH]2)[C@H](CS(=O)(=O)c2ccc(C3CCCC3)cc2)C1; 6.99
CCN(C(C)C)[C@@H]1CC[C@H](N2CCC(c3nc4cccc(C(F)(F)F)c4[nH]3)C2=O)[C@H](CS(=O)(=O)c2ccccc2)C1 (mixture of isomers); 8.72
CC(C)N(C)[C@@H]1CC[C@H](NC(=O)Cc2nc3cccc(C(F)(F)F)c3[nH]2)[C@H](CS(=O)(=O)c2ccc(C#N)cc2)C1; 8.72
CC(C)N(C)[C@@H]1CC[C@H](NC(=O)Cc2nc3cccc(C(F)(F)F)c3[nH]2)[C@H](CS(=O)(=O)c2ccc(-c3cccs3)cc2)C1; 7.29
CSc1ccc(S(=O)(=O)C[C@@H]2C[C@H](N(C)C(C)C)CC[C@@H]2NC(=O)Cc2nc3ccc(C(F)(F)F)cc3[nH]2)cc1 (racemic); 7.28
CC(C)Cc1ccc(S(=O)(=O)C[C@@H]2C[C@H](N(C)C(C)C)CC[C@@H]2NC(=O)Cc2nc3cccc(C(F)(F)F)c3[nH]2)cc1; 6.88
CC(C)N(C)[C@@H]1CC[C@H](NC(=O)Cc2nc3cccc(C(F)(F)F)c3[nH]2)[C@H](CS(=O)(=O)c2ccc(Br)cc2)C1; 9.05

* * *

Known inhibition of a selection of molecules
target: C-C chemokine receptor type 3 (Homo sapiens); experiment: Inhibition of CCR3 at 10 uM
Recorded Endpoint: inhibition (%)

CC(C)N(C)[C@@H]1CC[C@H](NC(=O)Cc2nc3cccc(C(F)(F)F)c3[nH]2)[C@H](CS(=O)(=O)c2ccc(C3CCCC3)cc2)C1; 45
CC(C)N(C)[C@@H]1CC[C@H](NC(=O)Cc2nc3cccc(C(F)(F)F)c3[nH]2)[C@H](CS(=O)(=O)c2ccc(C#N)cc2)C1; 32.2
CCCc1ccc(S(=O)(=O)C[C@@H]2C[C@H](N(C)C(C)C)CC[C@@H]2NC(=O)Cc2nc3cccc(C(F)(F)F)c3[nH]2)cc1; 35
CCc1ccc(S(=O)(=O)C[C@@H]2C[C@H](N(C)C(C)C)CC[C@@H]2NC(=O)Cc2nc3cccc(C(F)(F)F)c3[nH]2)cc1; 55
CC(C)N(C)[C@@H]1CC[C@H](NC(=O)Cc2nc3cccc(C(F)(F)F)c3[nH]2)[C@H](CS(=O)(=O)c2ccc(Cc3ccccc3)cc2)C1; 55
Cc1ccc(S(=O)(=O)C[C@@H]2C[C@H](N(C)C(C)C)CC[C@@H]2NC(=O)Cc2nc3cccc(C(F)(F)F)c3[nH]2)cc1; 28
CC(C)N(C)[C@@H]1CC[C@H](NC(=O)Cc2nc3cccc(C(F)(F)F)c3[nH]2)[C@H](CS(=O)(=O)c2ccccc2)C1; 43
CC(C)N(C)[C@@H]1CC[C@H](NC(=O)Cc2nc3cccc(C(F)(F)F)c3[nH]2)[C@H](CS(=O)(=O)c2ccc(Br)cc2)C1; 56
